assay.explanation: refractive index (Na D-line) (dimensionless)
condition.label: 318.15 K; 101.33 kPa; Liquid; Standard Abbe refractometry
property.measured: refractive index

ClC(Cl)Cl [trichloromethane] | 1.42986
ClCCCCl [1,3-dichloropropane] | 1.43614
ClC(Cl)C(Cl)Cl [1,1,2,2-tetrachloroethane] | 1.48137
CCCCCl [1-chlorobutane] | 1.38851
CC(Cl)(Cl)Cl [1,1,1-trichloroethane] | 1.42311
ClCCCCCl [1,4-dichlorobutane] | 1.44279
ClCCCl [1,2-dichloroethane] | 1.43109
CCCCCCl [1-chloropentane] | 1.39984

====

condition.label: 298.15 K; 101.3 kPa; Liquid; Sing-around technique in a fixed-path interferometer
Parameter: speed of sound. Scope: all listed entries.
property.measured: speed of sound (m/s)

ClCCCl | 1194.4
ClCCCCl | 1236.5
CC(Cl)(Cl)Cl | 962.94
CCCCCCl | 1164.2
ClCCCCCl | 1286.6
ClC(Cl)C(Cl)Cl | 1150.6
ClC(Cl)Cl | 984.42
CCCCCl | 1119

====

Listed here: items and their measured speed of sound.
condition.label: 318.15 K; 101.3 kPa; Liquid; Sing-around technique in a fixed-path interferometer
property.measured: speed of sound (m/s)

ClCCCCl [1,3-dichloropropane] | 1163.2
CC(Cl)(Cl)Cl [1,1,1-trichloroethane] | 894.71
ClC(Cl)Cl [trichloromethane] | 916.63
CCCCCl [1-chlorobutane] | 1037.3
ClCCCCCl [1,4-dichlorobutane] | 1215.7
ClC(Cl)C(Cl)Cl [1,1,2,2-tetrachloroethane] | 1087
CCCCCCl [1-chloropentane] | 1085.8
ClCCCl [1,2-dichloroethane] | 1117.8

====

Overview of reported speed of sound across a group of compounds:
condition.label: 308.15 K; 101.3 kPa; Liquid; Sing-around technique in a fixed-path interferometer
property.measured: speed of sound (m/s)

CCCCCl [1-chlorobutane] | 1078
CCCCCCl [1-chloropentane] | 1124.9
ClCCCCl [1,3-dichloropropane] | 1199.7
ClCCCl [1,2-dichloroethane] | 1156.1
ClCCCCCl [1,4-dichlorobutane] | 1251
CC(Cl)(Cl)Cl [1,1,1-trichloroethane] | 928.68
ClC(Cl)C(Cl)Cl [1,1,2,2-tetrachloroethane] | 1118.7
ClC(Cl)Cl [trichloromethane] | 950.45

====

assay.explanation: refractive index (Na D-line) (dimensionless)
condition.label: 298.15 K; 101.33 kPa; Liquid; Standard Abbe refractometry
Measured refractive index, listed per entry for reference.
property.measured: refractive index

CCCCCl | 1.39953
ClCCCl | 1.44206
ClCCCCCl | 1.45224
ClCCCCl | 1.44617
ClC(Cl)C(Cl)Cl | 1.49174
CCCCCCl | 1.41015
ClC(Cl)Cl | 1.44209
CC(Cl)(Cl)Cl | 1.43492

====

Reported refractive index values are given for each entry in this list.
assay.explanation: refractive index (Na D-line) (dimensionless)
condition.label: 308.15 K; 101.33 kPa; Liquid; Standard Abbe refractometry
property.measured: refractive index

CC(Cl)(Cl)Cl | 1.42908
ClCCCCl | 1.44123
ClC(Cl)C(Cl)Cl | 1.48654
CCCCCCl | 1.40501
ClCCCCCl | 1.44756
CCCCCl | 1.39413
ClC(Cl)Cl | 1.43598
ClCCCl | 1.43661
